Form field: Ki (one value per entry).
# targetEntity: Neutrophil elastase (Homo sapiens)
# Sequence (P08246 whole entry): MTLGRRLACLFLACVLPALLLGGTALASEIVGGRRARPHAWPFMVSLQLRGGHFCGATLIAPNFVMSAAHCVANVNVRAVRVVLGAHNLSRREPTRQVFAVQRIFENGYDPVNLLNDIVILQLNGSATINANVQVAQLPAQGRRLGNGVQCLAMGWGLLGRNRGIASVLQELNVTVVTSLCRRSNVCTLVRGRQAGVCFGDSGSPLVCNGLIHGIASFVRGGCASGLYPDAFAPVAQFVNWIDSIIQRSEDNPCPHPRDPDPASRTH
# procedureDetails: In vitro inhibitory activity against Human leukocyte elastase
The reply should contain only the number, in nM.

Sample records with Ki:
In [3]: df
Out[3]:
                                   molecule                        targetentity  measured
0  CCOP(=O)(OCC)OCN1C(=O)c2c(C(C)C)cc(O)cc2S1(=O)=O  Neutrophil elastase (Homo sapiens)       4.5
1  CCOP(=O)(OCC)OCN1C(=O)c2c(C(C)C)cccc2S1(=O)=O  Neutrophil elastase (Homo sapiens)       0.1
2    CCOP(=O)(OCC)OCN1C(=O)c2ccccc2S1(=O)=O  Neutrophil elastase (Homo sapiens)        60

Please look at the following molecule next.
Task item: # Ki lookup, item CCOP(=O)(OCC)OCN1C(=O)c2c(C(C)CC)cccc2S1(=O)=O (centres undefined)
Reply: 0.07
